# Target desc: Cdk2(N272C) (C177A) (Homo sapiens, UniProt P24941, C177A/N272C)
# Construct: poly-histidine; made in house; host or cells: E. coli
# Method: Kinetic thiol consumption assay with Cdk2 mutant N272C
# Assay type: binding
# Parameters: key: rate constant with Cdk2 ÷ rate constant with model thiol (fold)
# Assay setup: Cdk2 N272, additional mutation C177A
Assay metric: Rate enhancement, Cdk2 N272
Output: the number by itself.

Compound | Rate enhancement, Cdk2 N272
C=CC(=O)Nc1cccc(Nc2ncnc3cc(OC)c(OC)cc23)c1 [GC248] | 1.058

Dear colleague, I am looking for the recorded Rate enhancement, Cdk2 N272 of the following compound: C=CC(=O)N1CCCc2cc(C(=O)OC)ccc21 [EL-1071]
0.6083

Hello, the source for this data is patent US11415579B2, in case you need it.
